Source listed as patent US20230219965A1.

Each entry below carries its recorded half-life at 1 μM.
assay notes: Liver microsomal metabolic stability, rat liver microsomes (RLM)
test settings: rat, liver microsomes, t1/2 (min) in RLM, 1 μM compound, 1 mg/mL microsomes, NADPH

CC(C)n1ncc(Cl)c1-c1cc2n(n1)CCC(=O)N2Cc1ccc(-c2cn(C)c(C(F)(F)F)n2)cc1 [Example 116] = > 25 min
CCn1cc(C(F)(F)F)nc1-c1ccc(C(C)N2C(=O)CCn3nc(-c4c(OC)ncnc4C4CC4)cc32)cc1 (stereo not shown) [Example 114] = < 25 min
CC(C)n1cc(C(F)(F)F)nc1-c1ccc(CN2C(=O)CCn3nc(-c4c(Cl)cnn4C(C)C)cc32)cc1F [Example 20] = > 25 min

// next item, half-life at 1 μM requested
-- ask Form field: reported half-life at 1 μM of CCn1cc(C(F)(F)F)nc1-c1ccc([C@@H](C)N2C(=O)CCn3nc(-c4c(OC)ncnc4C4CC4)cc32)cc1F [Example 143]
-- reply > 25 min
